- Tested on: U2OS
- Assay Text: Multiplex assay against U2OS
- Assay type: toxicity, cell-based
- Particulars: human, 12 h, 1 µM, compound concentration 1 uM, replicate 1
// reported Population Membrane Permeable-Phenotype (%) for each item listed
Quantity Kind: Population Membrane Permeable-Phenotype (%)

CC1(COc2ccc3c(c2)ncn3-c2ccc3cccc(N4CCC(N)CC4)c3n2)COC1 | 87
CN(C)c1ccnc2sc3c(=O)n(N4CCCCCC4)cnc3c12 | 4
Cc1nc2ccc(Oc3ccc(F)cc3)cc2c(=O)n1C[C@H]1CCCN(C(C)C)C1.Cl | 9
O=S(=O)(c1ccccc1)c1cnc2c(N3CCNCC3)cccc2c1 [INTEPIRDINE] | 6
CN(C)CCCc1cc(C(=O)Nc2ccc(-c3ccncc3)cc2)ccc1O.Cl.Cl | 6
C[C@H]1[C@H]2CC[C@H]3[C@@H]4CC=C5C[C@@H](N(C)C)CC[C@]5(C)[C@H]4CC[C@]23CN1C | 5
Cc1ccc(/C(=C\CN2CCCC2)c2ccccn2)cc1 | 4
CC(C)(C)c1ccc(S(=O)(=O)Nc2ccc(Cl)cc2C(=O)c2cc[n+]([O-])cc2)cc1 | 8
O=C(NCCO)c1cccc(-c2cc(Nc3ccc(OC(F)(F)F)cc3)ncn2)c1 | 3
C[C@H](NC(=O)c1c(C(F)F)nn(C)c1Oc1cccc(C(F)(F)F)c1)c1ccc(C(=O)O)cc1 | 4
COc1c(C)cc(NC(=O)c2nn(Cc3ccc(F)cc3)c3c2CN(C(=O)c2ccc[nH]2)C[C@]3(C)C(N)=O)cc1C | 8
C[C@@H]1C[C@H]2[C@@H]3CCC4=CC(=O)C=C[C@]4(C)[C@@]3(F)[C@@H](O)C[C@]2(C)[C@@]1(O)C(=O)CO | 2
CCOc1c2c(c(OCC)c3ncccc13)CN(c1ccc(CS(=O)(=O)NC(=O)Cc3ccccc3OC)cc1C)C2=O | 7
COc1cc(C(=O)N(CCCc2ccccc2)Cc2ccc(CC(=O)O)cc2)cc(OC)c1C | 7
CN1CCN(c2nc3cc(C(F)(F)F)ccc3n3cccc23)CC1.O=C(O)/C=C\C(=O)O.O=C(O)/C=C\C(=O)O | 4
CNC[C@H](O)c1ccc(O)c(O)c1 [EPINEPHRINE] | 5
Cc1ccc(F)cc1C(=O)Nc1ccc(C(=O)N2Cc3cccn3Cc3ccccc32)c(Cl)c1 | 9

====

- Tested on: U2OS
- Assay Text: Multiplex assay against U2OS
- Format: toxicity, cell-based
- Particulars: human, 24 h, 10 µM, compound concentration 10 uM, replicate 2
Quantity Kind: Population Apoptotic (%)

Cc1ccccc1C(=O)Nc1ccc(C(=O)N2CCCC(N(C)C)c3ccccc32)cc1.Cl (stereo not given) | 46%
CCCn1c(=O)c2[nH]c(C3CCCC3)nc2n(CCC)c1=O | 100%
CN1CCN2c3ncccc3Cc3ccccc3C2C1 (stereo not given) | 83%
c1cc(OCCCN2CCCCC2)ccc1CN1CCCCC1 | 84%
O=C(NCC(=O)N1CC[C@H](N[C@H]2CC[C@@](O)(c3ccc(-c4ncccn4)cn3)CC2)C1)c1cccc(C(F)(F)F)c1 | 75%

====

- Tested on: U2OS
- Assay Text: Multiplex assay against U2OS
- Assay type: toxicity, cell-based
- Particulars: human, 24 h, 10 µM, compound concentration 10 uM, replicate 2
Entries are grouped by Population Healthy Nuclei (%) into these classes: L: < 70%; M: ≥ 70% and < 80%; H: ≥ 80%

CSc1ccccc1N1CCN(CCCCCC(=O)NC2CCCc3ccccc32)CC1.Cl (stereo not given) | L
Cc1ccc(C(C)(O)c2nc3ccccc3s2)c(C)c1 (stereo not given) | M
CN1CCN2c3ncccc3Cc3ccccc3C2C1 (stereo not given) [MIRTAZAPINE] | H
CCNC1(C(N)=O)CCN(c2ncnc3c2nc(-c2ccccc2Cl)n3-c2ccc(Cl)cc2)CC1 [OTENABANT] | L
CN(C)CCCc1cc(C(=O)Nc2ccc(-c3ccncc3)cc2)ccc1O.Cl.Cl | L
O=C(O)Cc1ccccc1Nc1c(Cl)cccc1Cl [DICLOFENAC] | M

====

# Population Tubulin-Different-Phenotype (%) values compiled below
- Test system: U2OS
- Assay Text: Multiplex assay against U2OS
- Format: toxicity, cell-based
- Particulars: human, 48 h, 10 µM, compound concentration 10 uM, replicate 2
Quantity Kind: Population Tubulin-Different-Phenotype (%)

CNC[C@H](O)c1ccc(O)c(O)c1 [EPINEPHRINE] | 13
CN(C)CCCc1cc(C(=O)Nc2ccc(-c3ccncc3)cc2)ccc1O.Cl.Cl | 9
CCOc1c2c(c(OCC)c3ncccc13)CN(c1ccc(CS(=O)(=O)NC(=O)Cc3ccccc3OC)cc1C)C2=O | 3
N#Cc1c(N)nc(SCc2csc(-c3ccc(Cl)cc3)n2)c(C#N)c1-c1ccc(OCCO)cc1 [CAPADENOSON] | 50
O=C(O)Cc1ccccc1Nc1c(Cl)cccc1Cl [DICLOFENAC] | 6
Cc1ccc(/C(=C\CN2CCCC2)c2ccccn2)cc1 [TRIPROLIDINE] | 6
CCCn1c(=O)c2[nH]c(C3CCCC3)nc2n(CCC)c1=O | 0
Cl.Clc1ccc2nsnc2c1NC1=NCCN1 [TIZANIDINE HYDROCHLORIDE] | 7

====

- Test system: HEK-293T
- Assay Text: Multiplex assay against HEK293T
- Format: toxicity, cell-based
- Particulars: human, 24 h, 1 µM, compound concentration 1 uM, replicate 2
// reported Population Normal (%) per item
Quantity Kind: Population Normal (%)

Cc1ccc(/C(=C\CN2CCCC2)c2ccccn2)cc1 | 92
COc1cc(C(=O)N(CCCc2ccccc2)Cc2ccc(CC(=O)O)cc2)cc(OC)c1C | 96
O=C(NCCO)c1cccc(-c2cc(Nc3ccc(OC(F)(F)F)cc3)ncn2)c1 | 93
CCCN1CCC[C@@H]2Cc3n[nH]cc3C[C@H]21.Cl [QUINPIROLE HYDROCHLORIDE] | 97
N#Cc1c(N)nc(SCc2csc(-c3ccc(Cl)cc3)n2)c(C#N)c1-c1ccc(OCCO)cc1 | 95
COc1cc(NC(=O)CCN2CCC(OC(=O)Nc3ccccc3-c3ccccc3)CC2)c(Cl)cc1CNC[C@H](O)c1ccc(O)c2[nH]c(=O)ccc12 | 91
O=C1COc2nccc(-c3ccccc3F)c2CN1Cc1cc(C(F)(F)F)cc(C(F)(F)F)c1 | 91
CCCn1c(=O)c2[nH]c(C3CCCC3)nc2n(CCC)c1=O | 96

====

- Test system: Fibroblast
- Assay Text: Multiplex assay against human fibroblast
- Assay type: toxicity, cell-based
- Particulars: 24 h, 10 µM, compound concentration 10 uM, replicate 2
Quantity Kind: Population Hoechst High Intensity Objects (%)

O=C(NCCO)c1cccc(-c2cc(Nc3ccc(OC(F)(F)F)cc3)ncn2)c1 | 7
O=C(O)Cc1ccccc1Nc1c(Cl)cccc1Cl | 2
CC1(COc2ccc3c(c2)ncn3-c2ccc3cccc(N4CCC(N)CC4)c3n2)COC1 | 17
C[C@H](NC(=O)c1c(C(F)F)nn(C)c1Oc1cccc(C(F)(F)F)c1)c1ccc(C(=O)O)cc1 | 10

====

- System: HEK-293T
- Assay Text: Multiplex assay against HEK293T
- Format: toxicity, cell-based
- Particulars: human, 24 h, 1 µM, compound concentration 1 uM, replicate 1
Threshold 30%: Population Mitochondria Different-Phenotype (%) strictly smaller gives y, otherwise n.

CSCC[C@H](NC=O)C(=O)N[C@@H](CC(C)C)C(=O)N[C@@H](Cc1ccccc1)C(=O)O | y
N#Cc1c(N)nc(SCc2csc(-c3ccc(Cl)cc3)n2)c(C#N)c1-c1ccc(OCCO)cc1 | n
CNC[C@H](O)c1ccc(O)c(O)c1 [EPINEPHRINE] | y
O=C(O)Cc1ccccc1Nc1c(Cl)cccc1Cl | n
Cc1ccc(-c2ccc(F)cc2COc2ccc(CCC(=O)O)cc2)cc1 | y
CC[C@H]1OC(=O)[C@H](C)[C@@H](O[C@H]2C[C@@](C)(OC)[C@@H](O)[C@H](C)O2)[C@H](C)[C@@H](O[C@@H]2O[C@H](C)C[C@H](N(C)C)[C@H]2O)[C@@]2(C)CC(C)=C(O2)[C@H](C)[C@@H](O)[C@]1(C)O | n
COc1cc(C(=O)N(CCCc2ccccc2)Cc2ccc(CC(=O)O)cc2)cc(OC)c1C | y
CN1CCN2c3ncccc3Cc3ccccc3C2C1 (stereo not given) | n
Cc1ccccc1C(=O)Nc1ccc(C(=O)N2CCCC(N(C)C)c3ccccc32)cc1.Cl (stereo not given) | y
Cc1ccc(/C(=C\CN2CCCC2)c2ccccn2)cc1 | y
O=C1COc2nccc(-c3ccccc3F)c2CN1Cc1cc(C(F)(F)F)cc(C(F)(F)F)c1 | n
COc1ccc2c(c1)C(C(=O)N(Cc1ccc(N(C)C)cc1)c1ccc(C(C)C)cc1)CCC2.Cl (stereo not given) | y
CN(C)c1ccnc2sc3c(=O)n(N4CCCCCC4)cnc3c12 | y
C[C@H]1[C@H]2CC[C@H]3[C@@H]4CC=C5C[C@@H](N(C)C)CC[C@]5(C)[C@H]4CC[C@]23CN1C | y
O=C(NCC(=O)N1CC[C@H](N[C@H]2CC[C@@](O)(c3ccc(-c4ncccn4)cn3)CC2)C1)c1cccc(C(F)(F)F)c1 | y
CCCN1CCC[C@@H]2Cc3n[nH]cc3C[C@H]21.Cl [QUINPIROLE HYDROCHLORIDE] | y
O=S(=O)(c1ccccc1)c1cnc2c(N3CCNCC3)cccc2c1 [INTEPIRDINE] | n
C[C@H](NC(=O)c1c(C(F)F)nn(C)c1Oc1cccc(C(F)(F)F)c1)c1ccc(C(=O)O)cc1 | y
CSc1ccccc1N1CCN(CCCCCC(=O)NC2CCCc3ccccc32)CC1.Cl (stereo not given) | n
O=C(NCCO)c1cccc(-c2cc(Nc3ccc(OC(F)(F)F)cc3)ncn2)c1 | y
c1cc(OCCCN2CCCCC2)ccc1CN1CCCCC1 | y
COc1cc(NC(=O)CCN2CCC(OC(=O)Nc3ccccc3-c3ccccc3)CC2)c(Cl)cc1CNC[C@H](O)c1ccc(O)c2[nH]c(=O)ccc12 | n
Oc1c(CN2CCN(c3ccccn3)CC2)cc(Cl)c2cccnc12 | y
CCCC(CCC)C(=O)O | y
CN(C)CCCc1cc(C(=O)Nc2ccc(-c3ccncc3)cc2)ccc1O.Cl.Cl | y
CCOc1c2c(c(OCC)c3ncccc13)CN(c1ccc(CS(=O)(=O)NC(=O)Cc3ccccc3OC)cc1C)C2=O | y
Cl.Clc1ccc2nsnc2c1NC1=NCCN1 [TIZANIDINE HYDROCHLORIDE] | y
Cc1nc2ccc(Oc3ccc(F)cc3)cc2c(=O)n1C[C@H]1CCCN(C(C)C)C1.Cl | n
CC(=O)NCCc1c(Cc2ccccc2)[nH]c2ccccc12 | n
O=C(O)c1cc2ccccc2c(Cc2c(O)c(C(=O)O)cc3ccccc23)c1O | y
N[C@@]1(C(=O)O)CO[C@H]2[C@H](C(=O)O)[C@H]21 | y
COc1ccccc1N1CCN(CCCCNC(=O)c2ccc3ccccc3c2)CC1.Cl | n

The origin of these recorded values is ChEMBL document CHEMBL5058577.
